Ref: paper PMC9352680

# testedOn: T1, PUF4 RNA-binding domain (Saccharomyces cerevisiae, UniProt P25339 537-888)
# T1 sequence: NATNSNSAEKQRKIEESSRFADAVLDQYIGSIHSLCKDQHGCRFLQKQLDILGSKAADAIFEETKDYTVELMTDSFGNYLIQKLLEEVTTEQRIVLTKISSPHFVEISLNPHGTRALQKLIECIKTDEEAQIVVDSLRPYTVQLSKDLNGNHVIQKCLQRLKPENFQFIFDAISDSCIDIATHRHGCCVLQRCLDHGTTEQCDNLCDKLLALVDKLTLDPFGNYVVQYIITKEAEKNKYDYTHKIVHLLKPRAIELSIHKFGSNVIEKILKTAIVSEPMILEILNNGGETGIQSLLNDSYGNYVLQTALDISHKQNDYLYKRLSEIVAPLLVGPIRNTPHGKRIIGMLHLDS
# protocol: Mg; RNA-MaP; 20 mM Na-HEPES pH 7.4, 30 mM KOAc, 0.75 mM MgCl2, 0.1% Tween-20, 5% glycerol, 0.1 mg/mL BSA, 2 mM DTT; 25 C; 0.0125-409.6 nM protein
# testSettings: tags: N-His6-TEV cleaved; C-SNAP kept, Cy3B-labelled; label: tethered on chip by stalled RNA polymerase
attributeMeasured: pKd
// pKd is dimensionless: -log10 of concentration (M)

Below are worked cases with known answers.
Ic_S2_P4E.1_K4.1_C4.1_H4.1_A4.1_[T5A]_[A6C]_[T7G]_F4.1_T4.1 (ssRNA) RNA: UUUGAUUAAUAUGAUAUCGUUCUUUCUUGUAACGUAUUCUUUCUCGAUAUCAUAUUAAUCUUU
7.96
Ic_S4_P4E.1_K4.1_C4.1_H4.1_A4.1_[T5A]_[A6C]_[T7A]_F4.1_[T8G]_[A9T]_T4.1 (ssRNA) RNA: UUUGACAACUGAUCGUUCUUUCUUGUAACAGUUUCUUUCUCGAUCAGUUGUCUUU
6.22
Ie_S4_P5E.1_K5.1_C5.1_H5.1_A5.1_F5.1_[+8CC]_T5.1 (ssRNA) RNA: UUUGACAACUGAUCGUUCUUUCUUGUAUUAUCCUAUUCUUUCUCGAUCAGUUGUCUUU
7.68
UCUCUUUGUAAACCUCUCUU (ssRNA) [Ic_S1_P3E.1_K3.1_C3.1_H3.1_A3.1_[T5A]_F3.1_[T7C]_[A8C]_T3.1]
6.25
UCUCUUCUUCCGUAUAUAUAUCUCUU (ssRNA) [Ie_S1_P3E.2_K3.1_C3.2_H3.1_[+1CC]_A3.1_F3.1_T3.2]
5.89

The binder listed as Id_i_S2_P3E.2_K3.1_C3.2_[C-2T]_[T-1C]_H3.1_A3.1_F3.1_T3.2 (ssRNA) RNA: UUUGAUUAAUAUGAUAUCGUUCUUUCUUCUGUAUAUAUAUUCUUUCUCGAUAUCAUAUUAAUCUUU has a reported pKd of 8.93
